assay: Membrane (paracellular) permeability with 14C-mannitol; type: in vitro ADME, rainbow trout (Oncorhynchus mykiss); details: rainbow trout (Oncorhynchus mykiss), pH 7.7, DSI epithelia with TER >2 kΩ cm^2, apical freshwater, read-out: mannitol permeability (Papp A:B)
measurement-name: Papp A→B at 24 h, 0.43 nM (×10⁻⁶ cm/s)
Give your result in ×10⁻⁶ cm/s as a bare value.

Measured Papp A→B at 24 h, 0.43 nM of `OC[C@@H](O)[C@@H](O)[C@H](O)[C@H](O)CO` : 0.1

---

assay: Bidirectional transport assays (BTA), apparent permeability coefficients and transport ratios; conditions: rainbow trout (Oncorhynchus mykiss)
For each record, write down the corresponding efflux ratio at 6 h, 1 μg L^−1.

Measured efflux ratio at 6 h, 1 μg L^−1 of CC(C)(C)NCC(O)c1cc(O)cc(O)c1 (centres unmarked) : 1.09

Measured efflux ratio at 6 h, 1 μg L^−1 of `CNC(=C[N+](=O)[O-])NCCSCc1ccc(CN(C)C)o1` : 0.83

---

assay: Bidirectional transport assays (BTA), apparent permeability coefficients and transport ratios; settings: rainbow trout (Oncorhynchus mykiss), pH 7.7
measurement-name: Papp B→A at 6 h, 1 μg L^−1 (×10⁻⁶ cm/s)
Give your result in ×10⁻⁶ cm/s as a bare value.

Measured Papp B→A at 6 h, 1 μg L^−1 of CC(C)NCC(O)COc1cccc2ccccc12 (stereo not shown) : 0.8

---

experiment: Membrane (paracellular) permeability with 14C-mannitol; assay type: in vitro ADME, rainbow trout (Oncorhynchus mykiss); conditions: pH 7.7, cell free inserts, TER 0 Ω cm^2 (blanked), apical freshwater, read-out: Mannitol flux (permeability)
measurement-name: Papp at 24 h, 0.43 nM (×10⁻⁶ cm/s)
Give your result in ×10⁻⁶ cm/s as a bare value.

Measured Papp at 24 h, 0.43 nM of `OC[C@@H](O)[C@@H](O)[C@H](O)[C@H](O)CO` : 3.6

---

assay: Bidirectional transport assays (BTA), apparent permeability coefficients and transport ratios; details: rainbow trout (Oncorhynchus mykiss)
measurement-name: Papp A→B at 6 h, 1 μg L^−1

Measured Papp A→B at 6 h, 1 μg L^−1 of CC(C)NCC(O)COc1cccc2ccccc12 (stereo not shown) : 1.7 ×10⁻⁶ cm/s

---

assay: in vitro; settings: rainbow trout (Oncorhynchus mykiss)
measurement-name: efflux ratio
Write the value as a bare number.

Measured efflux ratio of COc1ccc(CC(C)NCC(O)c2ccc(O)c(NC=O)c2)cc1 (stereo not shown) [Formoterol, formoterol] : 0.93

---

experiment: Bidirectional transport assays (BTA), apparent permeability coefficients and transport ratios; conditions: rainbow trout (Oncorhynchus mykiss), pH 7.7
measurement-name: efflux ratio at 6 h, 1 μg L^−1

Measured efflux ratio at 6 h, 1 μg L^−1 of CC(C)(C)NCC(O)c1cc(O)cc(O)c1 (stereo not shown) [Terbutaline, terbutaline] : 1.13

---

assay: Bidirectional transport assays (BTA), apparent permeability coefficients and transport ratios; conditions: rainbow trout (Oncorhynchus mykiss)
measurement-name: Papp B→A at 6 h, 1 μg L^−1 (×10⁻⁶ cm/s)
Give your result in ×10⁻⁶ cm/s as a bare value.

Measured Papp B→A at 6 h, 1 μg L^−1 of CC(C)NCC(O)COc1cccc2ccccc12 (stereo not shown) : 1.1

---

assay: Membrane (paracellular) permeability with 14C-mannitol; format: in vitro ADME, rainbow trout (Oncorhynchus mykiss); details: rainbow trout (Oncorhynchus mykiss), pH 7.7, DSI epithelia with TER 200–1000 Ω cm^2, apical freshwater, read-out: mannitol permeability
measurement-name: Papp A→B at 24 h, 0.43 nM (×10⁻⁶ cm/s)
Give your result in ×10⁻⁶ cm/s as a bare value.

Measured Papp A→B at 24 h, 0.43 nM of OC[C@@H](O)[C@@H](O)[C@H](O)[C@H](O)CO [Mannitol, mannitol] : 1.1
